Tested on: KMO
method: KMO inhibition: L-Kynurenine hydroxylation to 3-Hydroxy-Kynurenine monitored by LC/MS
Assay type: biochemical
experimental_parameters: compound at 10 uM; footnote: some portion of activity of amides may be due to contribution of acid precursor
Collected % Inhibition at 10 uM* values appear next to each entry.
A number alone suffices; assume %.

// known answers, use as guide
>>> print(df.to_string())
                                   molecule  measured_result
0           O=C(O)c1cc(-c2ccc3ncccc3c2)ncn1              100
1  O=S(=O)(Nc1cc(-c2ccc(OC3CC3)c(Cl)c2)ncn1)C1CC1               33

Now, please, on to the next molecule.
Prompt: % Inhibition at 10 uM* for CCC(C)Oc1ccc(-c2ccnc(C(=O)O)c2)cc1Cl (stereo in doubt) ?
Completion: 50

---

Catalogue of compounds with associated % Inhibition at 10 uM*
Test system: KMO
method: KMO inhibition: L-Kynurenine hydroxylation to 3-Hydroxy-Kynurenine monitored by LC/MS
Format: biochemical
experimental_parameters: compound at 10 uM; footnote: some portion of activity of amides may be due to contribution of acid precursor
From the text: A generalized procedure for monitoring L-Kynurenine (KYN) hydroxylation to form product 3-Hydroxy-Kynurenine (30H-KYN) by LC/MS is described below. Product is quantified by multiple reaction monitoring using MS. A method of monitoring L-Kynurenine (KYN) hydroxylation to form product 3-Hydroxy-Kynurenine (30H-KYN) by LC/MS is described below. Product is quantified by multiple reaction monitoring. […]
Please state the figure in %; there is no need to write the unit.

>>> df
                                   compound  measured_result
0  O=S(=O)(Nc1cc(-c2ccc(OC3CC3)c(Cl)c2)ncn1)c1ccccc1               73
1     O=C(O)c1cc(-c2ccc(NC3CC3)c(Cl)c2)ncn1              101
2  O=C(O)c1cc(-c2ccc(OCCN3CCCCC3)c(Cl)c2)ncn1               90

Prompt: Notebook: pull reported % Inhibition at 10 uM* for KMO, entry O=S(=O)(Nc1cc(-c2ccc(OC3CC3)c(Cl)c2)ncn1)c1ccc(F)cc1
Completion: 98

Prompt: Form entry - test system: KMO; read-out: % Inhibition at 10 uM*; compound: O=S(=O)(Nc1cc(-c2ccc(OC3CC3)c(Cl)c2)ncn1)c1ccc(OC(F)(F)F)cc1
Completion: 88

---

Property: % Inhibition at 10 uM*; scope: individual compounds
System: KMO
method: KMO inhibition: L-Kynurenine hydroxylation to 3-Hydroxy-Kynurenine monitored by LC/MS
Format: biochemical
experimental_parameters: compound at 10 uM; footnote: some portion of activity of amides may be due to contribution of acid precursor
Quick note: give the figure in %, leave out the unit.

Check out these entries, answers already filled in.
>>> df
                                   compound  measured_result
0  COC(C)c1ccc(-c2cc(C(=O)O)ncn2)cc1Cl (stereo not drawn)              101
1    CN1CCCc2cc(-c3cc(C(=O)O)ncn3)cc(Cl)c21              100
2  O=C([O-])c1cc(-c2cc(Cl)c3ncccc3c2)ncn1.[Na+]              100

Prompt: Given the entry CN(C)Cc1ccc(-c2cc(C(=O)O)ncn2)cc1Cl , report its measured % Inhibition at 10 uM*.
Completion: 65

Prompt: # % Inhibition at 10 uM* lookup, item O=C(O)c1cc(-c2cc(Cl)c3c(c2)CCCO3)ncn1
Completion: 100

Prompt: Which % Inhibition at 10 uM* value belongs to O=C(O)c1cc(-c2cc(Cl)c3occc3c2)ncn1 ?
Completion: 100

---

Listing of recorded % Inhibition at 10 uM* by entry.
Tested on: KMO
method: KMO inhibition: L-Kynurenine hydroxylation to 3-Hydroxy-Kynurenine monitored by LC/MS
Format: biochemical
experimental_parameters: compound at 10 uM; footnote: some portion of activity of amides may be due to contribution of acid precursor
Give just the numeric value; % need not be written.

                                   molecule  measurement_target  measured_result
0  CCC(C)Oc1ccc(-c2ccnc(C(=O)O)c2)cc1Cl (stereo in doubt)                 KMO               82
1     Cc1nc2c(Cl)cc(-c3cc(C(=O)O)ncn3)cc2o1                 KMO              102
2         CC(C)c1ccc(-c2cc(C(=O)O)ncn2)cc1F                 KMO               85
3        Cc1nc(C(=O)O)cc(-c2ccc(C)c(F)c2)n1                 KMO               96
4  O=S(=O)(Nc1cc(-c2ccc(OC3CC3)c(Cl)c2)ncn1)c1ccccc1F                 KMO               96
5  O=C(O)c1cc(-c2ccc(OC3CCNC3)c(Cl)c2)ncn1 (stereo not shown)                 KMO               80
6     O=C1OCCc2c1ncnc2-c1ccc(OC2CC2)c(Cl)c1                 KMO              100
7  O=C(OC[C@H]1OC(O)[C@H](O)[C@@H](O)[C@@H]1O)c1cc(-c2ccc(OC3CC3)c(Cl)c2)ncn1 (stereo partly shown)                 KMO              102

Prompt: Need % Inhibition at 10 uM*, item O=C(O)c1cc(-c2ccc(C(=O)C3CC3)c(Cl)c2)ncn1
Completion: 101

Prompt: Find the recorded % Inhibition at 10 uM* belonging to O=C(O)c1ncnc(-c2ccc(OC3CC3)c(Cl)c2)c1CO and report it.
Completion: 100

---

Test system: KMO
method: KMO inhibition: L-Kynurenine hydroxylation to 3-Hydroxy-Kynurenine monitored by LC/MS
Assay type: biochemical
experimental_parameters: compound at 10 uM; footnote: some portion of activity of amides may be due to contribution of acid precursor
Consider the following compounds and their measured % Inhibition at 10 uM* readings.
Dear colleague, please return just the value in %, with no unit written.

Example entries begin here.
                                   compound   experimental_endpoint  measured_result
0      O=C1OCc2c1ncnc2-c1ccc(OC2CC2)c(Cl)c1  % Inhibition at 10 uM*              100
1  C[S+]([O-])c1ccc(-c2cc(C(=O)O)ncn2)cc1Cl (stereo not drawn)  % Inhibition at 10 uM*              100
2     Cc1nc2cc(-c3cc(C(=O)O)ncn3)cc(Cl)c2o1  % Inhibition at 10 uM*              102
3  O=C(Nc1cccnc1)c1cc(-c2ccc(Cl)c(OC3CCOC3)c2)ncn1 (stereo not drawn)  % Inhibition at 10 uM*            88.39
4    CN(c1ccc(-c2cc(C(=O)O)ncn2)cc1Cl)C1CC1  % Inhibition at 10 uM*               96
5          COCc1ccc(-c2cc(C(=O)O)ncn2)cc1Cl  % Inhibition at 10 uM*              105
6  CC(Oc1ccc(-c2cc(C(=O)O)ncn2)cc1Cl)C(F)(F)F (stereo not drawn)  % Inhibition at 10 uM*               94
7   CS(=O)(=O)c1ccc(-c2cc(C(=O)O)ncn2)cc1Cl  % Inhibition at 10 uM*              100

Prompt: % Inhibition at 10 uM* for Nc1cc(-c2cc(C(=O)O)ncn2)ccc1Cl ?
Completion: 101.01

Prompt: Returns the measured % Inhibition at 10 uM* for the input compound. Input: Cn1c(=O)oc2c(Cl)cc(-c3cc(C(=O)O)ncn3)cc21
Completion: 100

Prompt: Which value of % Inhibition at 10 uM* has been reported for O=C(O)c1cc(-c2cc(Cl)c3oc(C4CC4)nc3c2)ncn1 in the records?
Completion: 100

Prompt: I would be grateful if you could share the reported % Inhibition at 10 uM* for O=C(O)c1cc(-c2cc(Cl)c3nccnc3c2)ncn1 .
Completion: 102

Prompt: What does the record list as % Inhibition at 10 uM* for CC(C)c1ccc(-c2cc(C(=O)O)ncn2)cc1Cl ?
Completion: 100

Prompt: I have this compound here, O=C(O)c1cc(-c2ccc(C(O)C3CC3)c(Cl)c2)ncn1 (stereo not drawn) , and I need its recorded % Inhibition at 10 uM*.
Completion: 90

Prompt: Given O=C(O)c1cc(-c2cc(Cl)c3c(c2)CCO3)ncn1 , state its recorded % Inhibition at 10 uM*.
Completion: 102

Prompt: Suppose we examine the compound CC(C)Oc1ccc(-c2ccnc(C(=O)O)c2)cc1Cl ; what % Inhibition at 10 uM* value has been reported?
Completion: 80
